Test system: Bacillus cereus
METHOD: Antibacterial activity against Bacillus cereus assessed as reduction in bacterial cell growth incubated for 24 hrs by filter paper assay
Format: functional
The source made the active and inactive calls. The calls are words filed in the database; no cut-off is given here.
READOUT_TYPE: MIC

Take a look at these entries with their results.
CCCCCCCC(=O)N1CCCC2(O)c3ccccc3N(C)C12 (stereo not given)    250 µg/mL
CCCCCCC(=O)N1CCC2(Cc3cccc(C)c3)c3ccccc3N(Cc3cccc(C)c3)C12 (stereo not given)    125 µg/mL
Cc1cccc(C(=O)N2CCCC3(O)c4ccccc4N(C)C23)c1 (stereo not given)    inactive
Cc1cccc(CN2c3ccccc3C3(Cc4cccc(C)c4)CCN(C(=O)c4ccccc4)C23)c1 (stereo not given)    inactive
Cc1cccc(CN2c3ccccc3C3(Cc4cccc(C)c4)CCN(C(=O)C(C)C)C23)c1 (stereo not given)    15.6 µg/mL

Please look at the items below and tell me MIC for each one, in order.
1. CC(=O)N1CCCC2(O)c3ccccc3N(C)C12 (stereo not given)
2. CC(C)C(=O)N1CCCC2(O)c3ccccc3N(C)C12 (stereo not given)
3. Cc1ccc(C(=O)N2CCCC3(O)c4ccccc4N(C)C23)cc1 (stereo not given)
4. COc1ccc(C(=O)N2CCC3(Cc4ccccc4C)c4ccccc4N(Cc4ccccc4C)C23)cc1 (stereo not given)
5. CCCCCC(=O)N1CCC2(Cc3cccc(C)c3)c3ccccc3N(Cc3cccc(C)c3)C12 (stereo not given)

Reply |
1. inactive
2. inactive
3. inactive
4. inactive
5. 250 µg/mL
